- target: T1, human NMI (N-myc Interacting protein), recombinant protein (human, UniProt Q13287 1-307, limits assumed)
- T1 construct: Gene ID: 9111; also called hNMI; antigen
- T1 sequence (looked up): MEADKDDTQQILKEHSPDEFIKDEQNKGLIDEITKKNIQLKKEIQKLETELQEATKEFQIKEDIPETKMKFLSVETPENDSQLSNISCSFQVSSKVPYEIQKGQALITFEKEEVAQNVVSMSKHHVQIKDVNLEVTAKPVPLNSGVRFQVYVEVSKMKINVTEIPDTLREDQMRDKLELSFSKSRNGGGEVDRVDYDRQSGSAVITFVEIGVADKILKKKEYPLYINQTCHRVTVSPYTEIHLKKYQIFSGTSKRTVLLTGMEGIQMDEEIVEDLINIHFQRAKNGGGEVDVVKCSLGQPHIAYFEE
- run.description: ELISA EC50 against parent 98G10
Property: Fold decrease in affinity; scope: individual binders

Field: example entries. Status: answers known.
Summary for this binder, 98G10 mutant G55W (VH) (antibody, V domains shown) VH: QEQLEESGGDLVKPEGSLTLTCTASGFSFSASYWICWVRQAPGKGLEWIACIYGWSSGSAYYASWAKGRFTISKTSSTTVTLQMTSLTAADTATYFCARAGYYNYGSAGDIYPSSFKLWGPGTLVTVSS VL: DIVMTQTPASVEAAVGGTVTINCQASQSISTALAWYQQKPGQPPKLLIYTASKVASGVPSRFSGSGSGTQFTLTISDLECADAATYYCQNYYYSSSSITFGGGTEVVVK : Fold decrease in affinity is > 100 fold

Summary for this binder, 98G10 mutant S56P (VH) (antibody, V domains shown) VH: QEQLEESGGDLVKPEGSLTLTCTASGFSFSASYWICWVRQAPGKGLEWIACIYGGPSGSAYYASWAKGRFTISKTSSTTVTLQMTSLTAADTATYFCARAGYYNYGSAGDIYPSSFKLWGPGTLVTVSS VL: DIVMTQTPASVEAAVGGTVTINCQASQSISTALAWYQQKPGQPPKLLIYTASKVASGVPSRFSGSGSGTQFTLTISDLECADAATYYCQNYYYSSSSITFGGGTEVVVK : Fold decrease in affinity is > 500 fold

Summary for this binder, 98G10 mutant G58V (VH) (antibody, V domains shown) VH: QEQLEESGGDLVKPEGSLTLTCTASGFSFSASYWICWVRQAPGKGLEWIACIYGGSSVSAYYASWAKGRFTISKTSSTTVTLQMTSLTAADTATYFCARAGYYNYGSAGDIYPSSFKLWGPGTLVTVSS VL: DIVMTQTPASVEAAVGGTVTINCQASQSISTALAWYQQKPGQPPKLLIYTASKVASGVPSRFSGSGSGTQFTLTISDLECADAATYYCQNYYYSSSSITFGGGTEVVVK : Fold decrease in affinity is > 100 fold

Further cases:
Summary for this binder, 98G10 mutant S56N (VH) (antibody, V domains shown) VH: QEQLEESGGDLVKPEGSLTLTCTASGFSFSASYWICWVRQAPGKGLEWIACIYGGNSGSAYYASWAKGRFTISKTSSTTVTLQMTSLTAADTATYFCARAGYYNYGSAGDIYPSSFKLWGPGTLVTVSS VL: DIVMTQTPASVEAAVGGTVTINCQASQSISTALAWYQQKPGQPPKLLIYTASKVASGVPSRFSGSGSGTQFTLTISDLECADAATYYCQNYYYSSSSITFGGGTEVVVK : Fold decrease in affinity is > 500 fold

Summary for this binder, 98G10 mutant S57R (VH) (antibody, V domains shown) VH: QEQLEESGGDLVKPEGSLTLTCTASGFSFSASYWICWVRQAPGKGLEWIACIYGGSRGSAYYASWAKGRFTISKTSSTTVTLQMTSLTAADTATYFCARAGYYNYGSAGDIYPSSFKLWGPGTLVTVSS VL: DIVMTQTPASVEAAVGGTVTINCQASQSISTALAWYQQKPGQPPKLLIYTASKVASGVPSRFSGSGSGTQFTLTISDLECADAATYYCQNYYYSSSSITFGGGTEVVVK : Fold decrease in affinity is > 500 fold
